Test system: Swiss CD-1 female mice
assay_text: Nephrotoxicity study, histopathological scoring of kidney lesions
Assay type: in vivo
Parameters: key: sum of 0-4 lesion parameter scores; higher = more nephrotoxic
condition_notes: Table 6; sum over all mice; 12 mg/Kg every 2 hours × 6, subcutaneous, total 72 mg/Kg
Numbered stars: 1 amine (or outer) side, 2 acyl side, 3 side chain; on linkers, the order of the positions; unused ones are H or OH. Bridge positions count the residues as written; N and C are the ends. Square brackets hold non-standard residues; d marks the D form. Peptide text beside a SMILES is read from it. X1 = C[C@@H](O)[C@@H](CS[*:1])N[*:2]; dGly(nOct) = CCCCCCCC[C@@H](N)C(=O)O; Hica(2S) = CC(C)C[C@H](O)C(=O)O; Dab = NCC[C@H](N)C(=O)O
reported_metric: Animal Score (AS), Partial AS
Keep the answer to the number alone.

| compound | Animal Score (AS), Partial AS |
| --- | --- |
| CCCCCCCC[C@@H](N)C(=O)N[C@H](C(=O)N[C@@H](CCN)C(=O)N[C@H]1CSSC[C@H]([C@@H](C)O)NC(=O)[C@H](CCN)NC(=O)[C@H](CCN)NC(=O)[C@H](CC(C)C)OC(=O)[C@@H](Cc2ccccc2)NC(=O)[C@H](CCN)NC1=O)[C@@H](C)O [Example 10] (H-[dGly(nOct)]T[Dab]C[Dab][dF][Hica(2S)][Dab][Dab]; linker 4-C via X1) | 0 |
| CCCCCCCC[C@@H](N)C(=O)N[C@H](C(=O)N[C@@H](CCN)C(=O)N[C@H]1CSSC[C@H]([C@@H](C)O)NC(=O)[C@H](CCN)NC(=O)[C@H](CCN)NC(=O)[C@H](CC(C)C)NC(=O)[C@@H](CC(C)C)NC(=O)[C@H](CCN)NC1=O)[C@@H](C)O [Example 6] (H-[dGly(nOct)]T[Dab]C[Dab][dL]L[Dab][Dab]; linker 4-C via X1; N-terminus assumed) | 6 |
| CCCCCCCC[C@@H](N)C(=O)N[C@H](C(=O)N[C@@H](CCN)C(=O)N[C@H]1CSSC[C@H]([C@@H](C)O)NC(=O)[C@H](CCN)NC(=O)[C@H](CCN)NC(=O)[C@H](CC(C)C)NC(=O)[C@@H](Cc2ccccc2)NC(=O)[C@H](CCN)NC1=O)[C@@H](C)O [Example 5] (H-[dGly(nOct)]T[Dab]C[Dab][dF]L[Dab][Dab]; linker 4-C via X1; N-terminus assumed) | 3 |

[in] Could you share which Animal Score (AS), Partial AS value was measured for CCCCCCCC[C@@H](N)C(=O)N[C@H](C(=O)N[C@@H](CCN)C(=O)N[C@H]1CSSC[C@H]([C@@H](C)O)NC(=O)[C@H](CCN)NC(=O)[C@H](CCN)NC(=O)[C@H](CC(C)C)OC(=O)[C@@H](CC(C)C)NC(=O)[C@H](CCN)NC1=O)[C@@H](C)O [Example 8] (H-[dGly(nOct)]T[Dab]C[Dab][dL][Hica(2S)][Dab][Dab]; linker 4-C via X1) ?
[out] 0
